The reported measurements were obtained from BigSolDB 2.1.

details: in n-butanol, 323.15 K
measured endpoint: solubility (mole fraction)

stdin: Fill in: solubility (mole fraction) of CC(=O)N[C@@H](CC(C)C)C(=O)O is ___
stdout: 0.0489

###

details: in methyl acetate, 283.15 K
measured endpoint: solubility (mole fraction)

stdin: Value lookup for solubility (mole fraction); key = CC(=O)N[C@@H](CC(C)C)C(=O)O
stdout: 0.00106

###

settings: in methanol, 308.15 K
measured endpoint: solubility (mole fraction)
Give the value as a plain number.

stdin: What does the data say about its solubility (mole fraction)? Entry: CC(=O)N[C@@H](CC(C)C)C(=O)O
stdout: 0.0589

###

conditions: in isobutanol, 308.15 K
measured endpoint: solubility (mole fraction)
Reply: number alone, nothing else.

stdin: Sample CC(=O)N[C@@H](CC(C)C)C(=O)O — what was its solubility (mole fraction)?
stdout: 0.0328
